molecular target: CHOK1 cells engineered to overexpress human CCR2 (Homo sapiens, UniProt P41597); construct: expressed in transfected cells; host or cells: CHOK1 cells; experiment: Antibody dependent cellular cytotoxicity (ADCC) reporter assay (Example 199); format: cell-based; conditions: with anti-cotinine antibody SEQ ID NO: 11/12; CHOK1-human CCR2 target cells, Jurkat FcγRIIIa NFAT-luciferase reporter cells; 12-18 hours; read-out: ADCC Reporter Assay pEC50 (converted)
Property: EC50 (nM)

Compound | Test System | Observed
CC(C)N(C)[C@@H]1CC[C@H](N2CC[C@H](Nc3ncnc4ccc(C(F)(F)F)cc34)C2=O)[C@H](NC(=O)CCOCCOCCNC(=O)COCCNC(=O)CCNC(=O)[C@H]2CC(=O)N(C)[C@@H]2c2cccnc2)C1 [Example 75] | CHOK1 cells engineered to overexpress human CCR2 (Homo sapiens, UniProt P41597) | 1.63
CC(C)N(C)[C@@H]1CC[C@H](N2CC[C@H](Nc3ncnc4ccc(C(F)(F)F)cc34)C2=O)[C@H](NC(=O)c2cnn(C3CCN(CCOCCOCCOCCNC(=O)[C@H]4CC(=O)N(C)[C@@H]4c4cccnc4)CC3)c2)C1 [Example 129] | CHOK1 cells engineered to overexpress human CCR2 (Homo sapiens, UniProt P41597) | 5.01

---

target: Anti-cotinine antibody (SEQ ID NO: 11 / SEQ ID NO: 12, rabbit variable region with human IgG1 Fc domain); assay: Binding of anti-cotinine antibody to ARM compounds by SPR, Biacore T200, 37° C. (Example 202); settings: pH 7.4, rabbit variable region/human IgG1 Fc antibody captured on protein A
Listed next: entries and their corresponding pKd of Antibody for ARM Compound of Formula (I).
Property: pKd of Antibody for ARM Compound of Formula (I)

Compound Structure String | Observed
CC(C)N(C)[C@@H]1CC[C@H](N2CC[C@H](Nc3ncnc4ccc(C(F)(F)F)cc34)C2=O)[C@H](NC(=O)CNC(=O)[C@H]2CC[C@@H](NC(=O)CCOCCOCCNC(=O)[C@H]3CC(=O)N(C)[C@@H]3c3cccnc3)CC2)C1 | 9.336
CC(C)N(C)[C@@H]1CC[C@H](N2CC[C@H](Nc3ncnc4ccc(C(F)(F)F)cc34)C2=O)[C@H](NC(=O)CCOCCNC(=O)CCCO[C@H]2CC[C@@H](OCCNC(=O)[C@H]3CC(=O)N(C)[C@@H]3c3cccnc3)CC2)C1 | 9.282
CC(C)N(C)[C@@H]1CC[C@H](N2CC[C@H](Nc3ncnc4ccc(C(F)(F)F)cc34)C2=O)[C@H](NC(=O)[C@H]2CC[C@@H](NC(=O)CCOCCOCCNC(=O)CCNC(=O)[C@H]3CC(=O)N(C)[C@@H]3c3cccnc3)CC2)C1 | 9.287
CC(C)N(C)[C@@H]1CC[C@H](N2CC[C@H](Nc3ncnc4ccc(C(F)(F)F)cc34)C2=O)[C@H](NC(=O)[C@H]2C[C@@H](NC(=O)CCOC[C@H]3CC[C@H](COCCNC(=O)[C@H]4CC(=O)N(C)[C@@H]4c4cccnc4)CC3)C2)C1 | 9.4085
CC(C)N(C)[C@@H]1CC[C@H](N2CC[C@H](Nc3ncnc4ccc(C(F)(F)F)cc34)C2=O)[C@H](NC2CCN(C(=O)CCOCCOCCOCCOCCNC(=O)[C@H]3CC(=O)N(C)[C@@H]3c3cccnc3)CC2)C1 | 9.321
CC(C)N(C)[C@@H]1CC[C@H](N2CC[C@H](Nc3ncnc4ccc(C(F)(F)F)cc34)C2=O)[C@H](NC(=O)[C@H]2C[C@@H](NC(=O)CCOCCOCCNC(=O)CNC(=O)[C@H]3CC(=O)N(C)[C@@H]3c3cccnc3)C2)C1 | 8.649
CC(C)N(C)[C@@H]1CC[C@H](N2CC[C@H](Nc3ncnc4ccc(C(F)(F)F)cc34)C2=O)[C@H](NC(=O)CCCC(=O)NCCCOCCCNC(=O)CCCNC(=O)[C@H]2CC(=O)N(C)[C@@H]2c2cccnc2)C1 | 9.1415
CC(C)N(C)[C@@H]1CC[C@H](N2CC[C@H](Nc3ncnc4ccc(C(F)(F)F)cc34)C2=O)[C@H](NC(=O)[C@H]2CC[C@@H](NC(=O)CCOCCNC(=O)CCCCNC(=O)[C@H]3CC(=O)N(C)[C@@H]3c3cccnc3)CC2)C1 | 9.3835

---

biological target: human alpha1 nicotinic acetylcholine (nACh) receptor (Homo sapiens, UniProt P02708+Q07001); assay: Nicotinic acetylcholine receptor antagonism assay, IONFlux automated patch clamp (Example 203); type: cell-based; details: maximum percentage antagonism at maximum concentration tested 100 μM; read-out: Maximum Response (%)
Sequence (P02708 21-457): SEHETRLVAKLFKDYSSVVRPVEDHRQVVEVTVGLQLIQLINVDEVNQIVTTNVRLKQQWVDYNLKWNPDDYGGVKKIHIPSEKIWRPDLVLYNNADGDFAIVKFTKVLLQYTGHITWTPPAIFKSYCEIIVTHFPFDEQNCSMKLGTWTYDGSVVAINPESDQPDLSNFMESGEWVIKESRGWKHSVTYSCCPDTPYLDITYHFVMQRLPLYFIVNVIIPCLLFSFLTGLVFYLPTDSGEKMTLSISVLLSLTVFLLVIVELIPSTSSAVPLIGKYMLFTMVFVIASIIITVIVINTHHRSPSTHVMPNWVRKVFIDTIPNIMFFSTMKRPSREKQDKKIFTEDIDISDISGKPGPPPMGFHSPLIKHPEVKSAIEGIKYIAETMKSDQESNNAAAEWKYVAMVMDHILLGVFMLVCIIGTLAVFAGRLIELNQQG
Sequence (P11230 24-501 partner): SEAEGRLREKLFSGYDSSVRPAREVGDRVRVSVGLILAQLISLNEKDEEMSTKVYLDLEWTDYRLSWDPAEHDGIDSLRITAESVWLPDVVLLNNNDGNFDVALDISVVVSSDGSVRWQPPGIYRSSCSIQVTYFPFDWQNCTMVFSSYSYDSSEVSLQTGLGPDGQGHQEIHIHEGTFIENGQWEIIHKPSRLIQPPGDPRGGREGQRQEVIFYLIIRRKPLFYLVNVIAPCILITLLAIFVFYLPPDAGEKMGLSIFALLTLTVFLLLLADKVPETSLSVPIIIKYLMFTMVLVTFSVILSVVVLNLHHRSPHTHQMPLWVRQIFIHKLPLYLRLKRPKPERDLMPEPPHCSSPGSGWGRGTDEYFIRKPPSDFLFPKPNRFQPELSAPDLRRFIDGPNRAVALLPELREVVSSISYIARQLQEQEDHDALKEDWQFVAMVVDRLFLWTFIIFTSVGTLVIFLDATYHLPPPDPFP
Sequence (Q07001 22-517): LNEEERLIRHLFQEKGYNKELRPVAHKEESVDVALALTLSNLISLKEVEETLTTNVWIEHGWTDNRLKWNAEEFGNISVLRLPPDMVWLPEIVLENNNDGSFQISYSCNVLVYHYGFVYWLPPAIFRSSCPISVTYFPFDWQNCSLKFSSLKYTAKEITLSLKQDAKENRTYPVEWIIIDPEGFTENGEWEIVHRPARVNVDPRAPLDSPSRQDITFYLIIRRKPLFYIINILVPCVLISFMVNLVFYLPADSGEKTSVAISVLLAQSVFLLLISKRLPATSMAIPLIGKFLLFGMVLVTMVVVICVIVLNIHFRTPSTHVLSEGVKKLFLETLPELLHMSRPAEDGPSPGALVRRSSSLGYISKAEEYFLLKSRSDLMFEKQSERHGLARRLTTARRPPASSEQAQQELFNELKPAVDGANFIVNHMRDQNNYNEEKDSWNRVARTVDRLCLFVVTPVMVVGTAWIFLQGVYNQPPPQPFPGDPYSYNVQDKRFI

Compound Structure String | Emax at 100 µM [%]
CC(C)N(C)[C@@H]1CC[C@H](N2CC[C@H](Nc3ncnc4ccc(C(F)(F)F)cc34)C2=O)[C@H](NC(=O)[C@H]2C[C@@H](NC(=O)CCOCCOCCNC(=O)CCNC(=O)[C@H]3CC(=O)N(C)[C@@H]3c3cccnc3)C2)C1 | 56.7
CC(C)N(C)[C@@H]1CC[C@H](N2CC[C@H](Nc3ncnc4ccc(C(F)(F)F)cc34)C2=O)[C@H](NC(=O)[C@H]2C[C@H](NC(=O)CCOCCOCCOCCNC(=O)[C@H]3CC(=O)N(C)[C@@H]3c3cccnc3)C2)C1 | 53.8

---

Listed next: entries and their corresponding EC50.
target: CHOK1 cells engineered to overexpress human CCR2 (Homo sapiens, UniProt P41597); construct: expressed in transfected cells; host or cells: CHOK1 cells; assay: Antibody dependent cellular cytotoxicity (ADCC) reporter assay (Example 199); assay type: cell-based; conditions: with anti-cotinine antibody SEQ ID NO: 11/12; CHOK1-human CCR2 target cells, Jurkat FcγRIIIa NFAT-luciferase reporter cells; 12-18 hours; read-out: ADCC Reporter Assay pEC50 (converted)
Property: EC50 (nM)

Compound Structure String | Observed
CC(C)N(C)[C@@H]1CC[C@H](N2CC[C@H](Nc3ncnc4ccc(C(F)(F)F)cc34)C2=O)[C@H](NC(=O)c2cc(OCCOCCOCCOCCNC(=O)[C@H]3CC(=O)N(C)[C@@H]3c3cccnc3)ccn2)C1 | 6.31
CN1C(=O)C[C@H](C(=O)NCCC(=O)NCCOCCOCCC(=O)N[C@H]2CC[C@@H](C(=O)N[C@@H]3C[C@H](NC(C)(C)C)CC[C@@H]3N3CC[C@H](Nc4ncnc5ccc(C(F)(F)F)cc45)C3=O)CC2)[C@H]1c1cccnc1 | 2
CC(C)N(C)[C@@H]1CC[C@H](N2CC[C@H](Nc3ncnc4ccc(C(F)(F)F)cc34)C2=O)[C@H](NC(=O)CCCC(=O)N[C@H]2CC[C@H](CNC(=O)CCOCCNC(=O)[C@H]3CC(=O)N(C)[C@@H]3c3cccnc3)CC2)C1 | 0.456
CC(C)N(C)[C@@H]1CC[C@H](N2CC[C@H](Nc3ncnc4ccc(C(F)(F)F)cc34)C2=O)[C@H](NC(=O)[C@H]2C[C@H](NC(=O)CCO[C@H]3CC[C@@H](OCCNC(=O)[C@H]4CC(=O)N(C)[C@@H]4c4cccnc4)CC3)C2)C1 | 5.01

---

Listed next: entries and their corresponding EC50.
target: CHOK1 cells engineered to overexpress human CCR2 (Homo sapiens); construct: expressed in transfected cells; host or cells: CHOK1 cells; test: Antibody dependent cellular cytotoxicity (ADCC) reporter assay (Example 199); type: cell-based; settings: with anti-cotinine antibody SEQ ID NO: 11/12; CHOK1-human CCR2 target cells, Jurkat FcγRIIIa NFAT-luciferase reporter cells; 12-18 hours; read-out: ADCC Reporter Assay pEC50 (converted)

Compound Structure String | Output Unit | EC50
CN1C(=O)C[C@H](C(=O)NCCOCCOCCOCCC(=O)N[C@H]2CC[C@H](C(=O)N[C@@H]3C[C@H](NC(C)(C)C)CC[C@@H]3N3CC[C@H](Nc4ncnc5ccc(C(F)(F)F)cc45)C3=O)CC2)[C@H]1c1cccnc1 | nM | 7.94
CC(C)N(C)[C@@H]1CC[C@H](N2CC[C@H](Nc3ncnc4ccc(C(F)(F)F)cc34)C2=O)[C@H](NC(=O)CCOCCNC(=O)CCCO[C@H]2CC[C@H](OCCNC(=O)[C@H]3CC(=O)N(C)[C@@H]3c3cccnc3)CC2)C1 | nM | 0.182

---

molecular target: CHOK1 cells engineered to overexpress human CCR2 (Homo sapiens); construct: expressed in transfected cells; host or cells: CHOK1 cells; experiment: Antibody dependent cellular cytotoxicity (ADCC) reporter assay (Example 199); type: cell-based; conditions: with anti-cotinine antibody SEQ ID NO: 11/12; CHOK1-human CCR2 target cells, Jurkat FcγRIIIa NFAT-luciferase reporter cells; 12-18 hours; read-out: ADCC Reporter Assay pEC50 (converted)
Listed next: entries and their corresponding EC50.

Compound | Test System | EC50 (nM)
CC(C)N(C)[C@@H]1CC[C@H](N2CC[C@H](Nc3ncnc4ccc(C(F)(F)F)cc34)C2=O)[C@H](NC(=O)C2CCN(CCCCCCCCNC(=O)[C@H]3CC(=O)N(C)[C@@H]3c3cccnc3)CC2)C1 [Example 144] | CHOK1 cells engineered to overexpress human CCR2 (Homo sapiens) | 3.16
CC(C)N(C)[C@@H]1CC[C@H](N2CC[C@H](Nc3ncnc4ccc(C(F)(F)F)cc34)C2=O)[C@H](NC(=O)c2ccc(NCCOCCOCCOCCOCCNC(=O)[C@H]3CC(=O)N(C)[C@@H]3c3cccnc3)nn2)C1 [Example 125] | CHOK1 cells engineered to overexpress human CCR2 (Homo sapiens) | 3.16
